system: colistin-resistant E. coli clinical isolates; assay: Disk diffusion antimicrobial susceptibility testing (CLSI); type: cell-based, Escherichia coli; details: EC-08
reported.metric: Interpreted results of disk diffusion

Example molecules with recorded Interpreted results of disk diffusion:
C[C@H]1[C@H](NC(=O)/C(=N\OC(C)(C)C(=O)O)c2csc(N)n2)C(=O)N1S(=O)(=O)O [ATM, aztreonam]	S
O=C(N[C@H](CO)[C@H](O)c1ccc([N+](=O)[O-])cc1)C(Cl)Cl [C, chloramphenicol]	R
CO/N=C(\C(=O)N[C@@H]1C(=O)N2C(C(=O)O)=C(CSc3nc(=O)c(=O)[nH]n3C)CS[C@H]12)c1csc(N)n1 [CRO, ceftriaxone]	R
NCC[C@H](O)C(=O)N[C@@H]1C[C@H](N)[C@@H](O[C@H]2O[C@H](CN)[C@@H](O)[C@H](O)[C@H]2O)[C@H](O)[C@H]1O[C@H]1O[C@H](CO)[C@@H](O)[C@H](N)[C@H]1O [AK, amikacin]	S
CC(C)(O/N=C(\C(=O)N[C@@H]1C(=O)N2C(C(=O)[O-])=C(C[n+]3ccccc3)CS[C@H]12)c1csc(N)n1)C(=O)O [CAZ, ceftazidime]	S

Next, consider the following molecule.
Q) Quick one: give measured Interpreted results of disk diffusion for CNC(C)C1CCC(N)C(OC2C(N)CC(N)C(OC3OCC(C)(O)C(NC)C3O)C2O)O1 (stereo not drawn) [GM, gentamicin]
A) R
